# assayed-target: HLA-A*02:01 (Homo sapiens, UniProt P04439, D140Y/D185E/D98H/E176V/E277Q/G131W/G231S/I119V/I121R/I166T/I218V/L300P/L318F/N151K/N90K/P208A/P217A/Q86G/Q94H/R138H/R169H/T345S)
# protocol-details: MHC binding assay (UV-ligand exchange, beta2m ELISA, peptide exchange yield)
# experimental-context: MHC class I binding score; binding to HLA-A*02:01 ranged by peptide exchange yield (UV-ligand exchange, β2m ELISA)
recorded-endpoint: Peptide exchange

29 (QMLDVAIRV; listed as Homo sapiens) [compound 29]
″+++″ (≥50 = +++)
109 (ALDGDQMEL; listed as Homo sapiens) [compound 109]
″++″ (≥20% = ++)
43 (TLDAAQPRV; listed as Homo sapiens) [compound 43]
″++″ (≥20% = ++)
183 (TLQEVVTGV; listed as Homo sapiens) [compound 183]
″+++″ (≥50 = +++)
155 (RLLGEEVVRV; listed as Homo sapiens) [compound 155]
″+++″ (≥50 = +++)
17 (ALAAARVEL; listed as Homo sapiens) [compound 17]
″+++″ (≥50 = +++)
35 (KLLDLTVRI; listed as Homo sapiens) [compound 35]
″+++″ (≥50 = +++)
83 (LTIEDGIFEV; listed as Homo sapiens) [compound 83]
″+++″ (≥50 = +++)
113 (ILYDLQQNL; listed as Homo sapiens) [compound 113]
″++″ (≥20% = ++)
71 (RLWTEIPTAI; listed as Homo sapiens) [compound 71]
″+++″ (≥50 = +++)

Please examine the following record next.
## Input Identify the reported Peptide exchange for the following entry. 23 (FLDANGHFV; listed as Homo sapiens) [compound 23]
## Output ″+++″ (≥50 = +++)

====

# assayed-target: HLA-A*02:01 (Homo sapiens, UniProt P04439, D140Y/D185E/D98H/E176V/E277Q/G131W/G231S/I119V/I121R/I166T/I218V/L300P/L318F/N151K/N90K/P208A/P217A/Q86G/Q94H/R138H/R169H/T345S)
# protocol-details: MHC binding assay (UV-ligand exchange, beta2m ELISA, peptide exchange yield)
# experimental-context: MHC class I binding score; binding to HLA-A*02:01 ranged by peptide exchange yield (UV-ligand exchange, β2m ELISA)
recorded-endpoint: Peptide exchange

Known Peptide exchange results, listed for orientation:
22 (GLIDEVMVL; listed as Homo sapiens) [compound 22]
″+++″ (≥50 = +++)
12 (ALVQGILERV; listed as Homo sapiens) [compound 12]
″+++″ (≥50 = +++)
27 (LLADEDSSYL; listed as Homo sapiens) [compound 27]
″++″ (≥20% = ++)
82 (QLYEEPDTKL; listed as Homo sapiens) [compound 82]
″++″ (≥20% = ++)
52 (ALDSSNSMQTI; listed as Homo sapiens) [compound 52]
″++″ (≥20% = ++)

## Input Identify the reported Peptide exchange for the following entry. 179 (RLLSPLSSA; listed as Homo sapiens) [compound 179]
## Output ″+++″ (≥50 = +++)

## Input Identify the reported Peptide exchange for the following entry. 182 (SLNKWIFTV; listed as Homo sapiens) [compound 182]
## Output ″++++″ (≥75% = ++++)

## Input Identify the reported Peptide exchange for the following entry. 177 (ALLQGAIESV; listed as Homo sapiens) [compound 177]
## Output ″+++″ (≥50 = +++)

====

# assayed-target: HLA-A*02:01 (Homo sapiens, UniProt P04439, D140Y/D185E/D98H/E176V/E277Q/G131W/G231S/I119V/I121R/I166T/I218V/L300P/L318F/N151K/N90K/P208A/P217A/Q86G/Q94H/R138H/R169H/T345S)
# protocol-details: MHC binding assay (UV-ligand exchange, beta2m ELISA, peptide exchange yield)
# experimental-context: MHC class I binding score; binding to HLA-A*02:01 ranged by peptide exchange yield (UV-ligand exchange, β2m ELISA)
recorded-endpoint: Peptide exchange

Known Peptide exchange results, listed for orientation:
19 (RLYTKLLNEA; listed as Homo sapiens) [compound 19]
″+++″ (≥50 = +++)
106 (SLISEKILL; listed as Homo sapiens) [compound 106]
″+++″ (≥50 = +++)
167 (SVIDHIHLISV; listed as Homo sapiens) [compound 167]
″+++″ (≥50 = +++)
15 (LQLDKEFQL; listed as Homo sapiens) [compound 15]
″+++″ (≥50 = +++)
85 (ILHDINSDGVL; listed as Homo sapiens) [compound 85]
″++″ (≥20% = ++)
42 (SILDDSFKL; listed as Homo sapiens) [compound 42]
″++++″ (≥75% = ++++)

## Input Identify the reported Peptide exchange for the following entry. 96 (KLYSRLVYV; listed as Homo sapiens) [compound 96]
## Output ″++″ (≥20% = ++)

## Input Identify the reported Peptide exchange for the following entry. 41 (ILDDSFKLL; listed as Homo sapiens) [compound 41]
## Output ″++″ (≥20% = ++)

## Input Identify the reported Peptide exchange for the following entry. 10 (RMYNKIFAI; listed as Homo sapiens) [compound 10]
## Output ″+++″ (≥50 = +++)

## Input Identify the reported Peptide exchange for the following entry. 81 (ALLSQQTHL; listed as Homo sapiens) [compound 81]
## Output ″+++″ (≥50 = +++)

## Input Identify the reported Peptide exchange for the following entry. 140 (LLNEILEQV; listed as Homo sapiens) [compound 140]
## Output ″+++″ (≥50 = +++)

====

# assayed-target: HLA-A*02:01 (Homo sapiens, UniProt P04439, D140Y/D185E/D98H/E176V/E277Q/G131W/G231S/I119V/I121R/I166T/I218V/L300P/L318F/N151K/N90K/P208A/P217A/Q86G/Q94H/R138H/R169H/T345S)
# protocol-details: MHC binding assay (UV-ligand exchange, beta2m ELISA, peptide exchange yield)
# experimental-context: MHC class I binding score; binding to HLA-A*02:01 ranged by peptide exchange yield (UV-ligand exchange, β2m ELISA)
recorded-endpoint: Peptide exchange

107 (ALLGGGPYML; listed as Homo sapiens) [compound 107]
″+++″ (≥50 = +++)
121 (SLAPNIISQL; listed as Homo sapiens) [compound 121]
″+++″ (≥50 = +++)
45 (ALAELLHGA; listed as Homo sapiens) [compound 45]
″+++″ (≥50 = +++)
131 (KLLDVVHPA; listed as Homo sapiens) [compound 131]
″++″ (≥20% = ++)
151 (SAQGSDVSLTACKV; listed as Homo sapiens) [compound 151]
″+++″ (≥50 = +++)
181 (NLFDLGGQYLRV; listed as Homo sapiens) [compound 181]
″+++″ (≥50 = +++)
118 (LLADLKTMV; listed as Homo sapiens) [compound 118]
″+++″ (≥50 = +++)

## Input Identify the reported Peptide exchange for the following entry. 64 (KTLGKLWRL; listed as Homo sapiens) [compound 64]
## Output ″++″ (≥20% = ++)

====

# assayed-target: HLA-A*02:01 (Homo sapiens, UniProt P04439, D140Y/D185E/D98H/E176V/E277Q/G131W/G231S/I119V/I121R/I166T/I218V/L300P/L318F/N151K/N90K/P208A/P217A/Q86G/Q94H/R138H/R169H/T345S)
# protocol-details: MHC binding assay (UV-ligand exchange, beta2m ELISA, peptide exchange yield)
# experimental-context: MHC class I binding score; binding to HLA-A*02:01 ranged by peptide exchange yield (UV-ligand exchange, β2m ELISA)
recorded-endpoint: Peptide exchange

Known Peptide exchange results, listed for orientation:
2 (ALLPRYFFL; listed as Homo sapiens) [compound 2]
″++″ (≥20% = ++)
75 (EMIENIQSV; listed as Homo sapiens) [compound 75]
″++″ (≥20% = ++)
47 (KLYERCEVV; listed as Homo sapiens) [compound 47]
″++″ (≥20% = ++)
61 (KLLKLFQGV; listed as Homo sapiens) [compound 61]
″+++″ (≥50 = +++)
13 (FLLAEDTKV; listed as Homo sapiens) [compound 13]
″+++″ (≥50 = +++)

## Input Identify the reported Peptide exchange for the following entry. 1 (ALIKQLFEA; listed as Homo sapiens) [compound 1]
## Output ″+++″ (≥50 = +++)

## Input Identify the reported Peptide exchange for the following entry. 142 (SLVQRVETI; listed as Homo sapiens) [compound 142]
## Output ″+++″ (≥50 = +++)

====

# assayed-target: HLA-A*02:01 (Homo sapiens, UniProt P04439, D140Y/D185E/D98H/E176V/E277Q/G131W/G231S/I119V/I121R/I166T/I218V/L300P/L318F/N151K/N90K/P208A/P217A/Q86G/Q94H/R138H/R169H/T345S)
# protocol-details: MHC binding assay (UV-ligand exchange, beta2m ELISA, peptide exchange yield)
# experimental-context: MHC class I binding score; binding to HLA-A*02:01 ranged by peptide exchange yield (UV-ligand exchange, β2m ELISA)
# Text: Candidate peptides for T cell based therapies according to the present invention were further tested for their MHC binding capacity (affinity). The individual peptide-MHC complexes were produced by UV-ligand exchange, where a UV-sensitive peptide is cleaved upon UV-irradiation, and exchanged with the peptide of interest as analyzed. Only peptide candidates that can effectively bind and stabilize the peptide-receptive MHC molecules prevent dissociation of the MHC complexes. […]
recorded-endpoint: Peptide exchange

Known Peptide exchange results, listed for orientation:
68 (SILQFVHMV; listed as Homo sapiens) [compound 68]
″+++″ (≥50 = +++)
117 (TLQPVDNSTISL; listed as Homo sapiens) [compound 117]
″++″ (≥20% = ++)
51 (QVWEIQHTV; listed as Homo sapiens) [compound 51]
″++″ (≥20% = ++)
91 (TVDVATPSV; listed as Homo sapiens) [compound 91]
″+++″ (≥50 = +++)
34 (ILLEKSVSV; listed as Homo sapiens) [compound 34]
″+++″ (≥50 = +++)
98 (AMNGKSFSV; listed as Homo sapiens) [compound 98]
″++″ (≥20% = ++)

## Input Identify the reported Peptide exchange for the following entry. 36 (GLLESPSIFNFTA; listed as Homo sapiens) [compound 36]
## Output ″+++″ (≥50 = +++)

## Input Identify the reported Peptide exchange for the following entry. 79 (SLAADQLLKL; listed as Homo sapiens) [compound 79]
## Output ″++″ (≥20% = ++)
